Quick list: CC50 per entry.
Tested on: NCI-N87 (gastric cancer)
method summary: Tumor cytotoxicity assay (MTT), NCI-N87
Format: cell-based
condition context: Homo sapiens, NCI-N87, 72 hours
readout label: CC50

>>> df
                                    compound     obs_value
 0  O=C(NCc1ccn2ccnc2c1)Nc1ccc(-c2ccncc2)c(C#Cc2ccc(F)cc2)c1       < 30 nM
 1  Cc1nc2cc(-c3ccc(NC(=O)NCc4ccn5ccnc5c4)cc3C#Cc3ccc(F)cc3)ccc2c(=O)n1CCN       < 30 nM
 2  O=C(NCCc1cccnc1)Nc1ccc(-c2ccncc2)c(C#Cc2ccc(C(=O)NCCN3CCC4(CCNC4)CC3)cc2)c1  30 to 100 nM
 3  CC(=O)Nc1ccc(C#Cc2cc(NC(=O)NCCc3cccnc3)ccc2-c2ccncc2)cc1       < 30 nM
 4  O=C(NCCc1cccnc1)Nc1ccc(-c2ccc(N3CCNCC3)cc2)c(C#Cc2ccc(F)cc2)c1       < 30 nM
 5  Cc1nc2cc(-c3ccc(NC(=O)NCCc4cccnc4)cc3C#Cc3ccc(F)cc3)ccc2c(=O)[nH]1       < 30 nM
 6  O=C(NCCc1cccnc1)Nc1ccc(-c2ccncc2)c(C#Cc2ccc(C(=O)NC3CCNCC3)cc2)c1       < 30 nM
 7  O=C(NCc1ccn2ccnc2c1)Nc1ccc(-c2ccncc2)c(C#Cc2ccc(C3CCNCC3)cc2)c1       < 30 nM
 8  Cc1nc2cc(-c3ccc(NC(=O)NCCc4cccnc4)cc3C#Cc3ccc(F)cc3)ccc2c(=O)n1CCN  30 to 100 nM
 9  O=C(NCCc1cccnc1)Nc1ccc(-c2ccncc2)c(C#Cc2ccc(F)cc2)c1  30 to 100 nM
10  O=C(NCCc1cccnc1)Nc1ccc(CC(=O)N2CCCCC2)c(C#Cc2ccc(F)cc2)c1       < 30 nM
11  NC1CCCN(CCNC(=O)c2ccc(C#Cc3cc(NC(=O)NCCc4cccnc4)ccc3-c3ccncc3)cc2)C1 (stereo not shown)  30 to 100 nM
12  O=C(NCCc1cccnc1)Nc1ccc(-c2ccncc2)c(C#Cc2ccc(C(=O)NCCN3CCNCC3)cc2)c1  30 to 100 nM
